Target: dopamine transporter (DAT) (UniProt Q9GJT6)
Construct: Dopamine transporter IC50 (nM) [3H]WIN 35,428; other: unit not given
Experiment: Competition binding with [3H]WIN 35,428 at the dopamine transporter
Conditions: unit inferred; read-out: DAT (binding, Table 6)
MEASUREMENT NAME: pIC50
Note on units: pIC50 is unitless, being -log10 of a concentration expressed in mol/L.

The following compounds have reported results that may help.
1. C=CCOC(=O)C1C2CCC(CC1c1ccc(Cl)c(Cl)c1)O2 (stereo not drawn) [Compound O-2227]: 8.52
2. C=CCCC(=O)OCC1C(c2ccc(F)cc2)CC2CCC1N2C (stereo not drawn) [Compound O-2517]: 7.22
3. C=CCCCOCC1C(c2ccc(F)cc2)CC2CCC1N2C (stereo not drawn) [Compound O-2528]: 7.39
4. O=C(OCCCN1C(=O)C=CC1=O)C1C(c2ccc(F)cc2)CC2CCC1N2CCN1C(=O)C=CC1=O (stereo not drawn) [Compound O-2335]: 6.52
5. C=CCCNC(=O)C1C(c2ccc(F)cc2)CC2CCC1N2C (stereo not drawn) [Compound O-2578]: 6.10

Reported pIC50 ( COCC(=O)OCCCN1C2CCC1C(C(=O)OC)C(c1ccc(F)cc1)C2 (stereo not drawn) [Compound O-1071] ) = 6.90

Looking up COC(=O)C1C(c2ccc(F)cc2)CC2CCC1N2CCOC(=O)CCC1CO1 (stereo not drawn) [Compound O-1899] , I see its pIC50 listed as 7.28

The recorded pIC50 for entry O=C(OCCCN1C(=O)C=CC1=O)C1C(c2ccc(F)cc2)CC2CCC1N2CCCN1C(=O)C=CC1=O (stereo not drawn) [Compound O-2492] equals 6.63

For this compound ( C=CCCNCC1C(c2ccc(F)cc2)CC2CCC1N2C (stereo not drawn) [Compound O-2583] ), measured pIC50 is 6.30

The reported pIC50 of the compound O=C(OCCN1C(=O)C=CC1=O)C1C(c2ccc(F)cc2)CC2CCC1N2CCN1C(=O)C=CC1=O (stereo not drawn) [Compound O-2315] was 5.70

Short answer for O=C(CCC1CO1)OCC1C2CCC(CC1c1ccc(Cl)c(Cl)c1)O2 (racemic) [Compound O-1834] : pIC50 was 7.77

The reported pIC50 of the compound COC(=O)C1C(c2ccc(F)cc2)CC2CCC1N2CCN1C(=O)C=CC1=O (stereo not drawn) [Compound O-1233] was 6.63

* * *

Target: dopamine transporter (DAT) (UniProt Q9GJT6)
Construct: Dopamine transporter IC50 (nM) [3H]WIN 35,428; other: unit not given
Experiment: Competition binding with [3H]WIN 35,428 at the dopamine transporter
Conditions: read-out: Dopamine transporter IC50 (nM) [3H]WIN 35,428; Table 5
MEASUREMENT NAME: IC50

Measured IC50 of CCN1C(=O)C=CC1=O [N-Ethylmaleimide, N-ethylmaleimide, reference compound] : > 100000 nM

* * *

The entries below come with measured Inhibition of DA uptake values attached.
Molecular target: human dopamine transporter (Homo sapiens, UniProt Q01959)
Construct: expressed in transfected cells; host or cells: HEK-293
Sequence (Q01959 whole entry): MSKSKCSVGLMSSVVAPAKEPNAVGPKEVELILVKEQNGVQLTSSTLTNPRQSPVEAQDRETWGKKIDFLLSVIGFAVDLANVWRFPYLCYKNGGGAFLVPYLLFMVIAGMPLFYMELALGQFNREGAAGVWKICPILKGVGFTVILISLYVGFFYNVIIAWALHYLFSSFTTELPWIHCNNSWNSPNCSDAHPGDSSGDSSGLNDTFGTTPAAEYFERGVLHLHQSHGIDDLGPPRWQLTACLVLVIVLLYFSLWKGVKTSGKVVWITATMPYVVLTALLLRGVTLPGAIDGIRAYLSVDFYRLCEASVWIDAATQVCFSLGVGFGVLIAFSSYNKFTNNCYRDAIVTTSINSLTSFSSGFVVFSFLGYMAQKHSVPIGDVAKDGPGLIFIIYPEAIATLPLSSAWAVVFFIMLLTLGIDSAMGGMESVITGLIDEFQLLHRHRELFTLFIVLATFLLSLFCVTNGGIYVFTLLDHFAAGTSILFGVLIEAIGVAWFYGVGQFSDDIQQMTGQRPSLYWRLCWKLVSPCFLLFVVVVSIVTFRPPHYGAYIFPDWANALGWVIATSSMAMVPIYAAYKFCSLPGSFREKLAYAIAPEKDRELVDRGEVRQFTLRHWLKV
Assay: [3H]dopamine uptake in hDAT HEK-293 cells after pre-incubation with compound and washing
Format: cell-based
Design: concentration or dose not given beside the values
Details: Table 6, incub time 24 h
Include the unit after the number when you answer.

Please review the following examples before continuing.
1. C=CCOC(=O)C1C2CCC(CC1c1ccc(Cl)c(Cl)c1)O2 (stereo not drawn) [Compound O-2227]: 40%
2. COC(=O)C1C(c2ccc(F)cc2)CC2CCC1N2CCOC(C)=O (stereo not drawn) [Compound O-1103]: 0%
3. CCN1C(=O)C=CC1=O [Compound O-1765]: 35%
4. COCC(=O)OCCCN1C2CCC1C(C(=O)OC)C(c1ccc(F)cc1)C2 (stereo not drawn) [Compound O-1071]: 0%
5. COC(=O)C1C(c2ccc(F)cc2)CC2CCC1N2CCOC(=O)CCC1CO1 (stereo not drawn) [Compound O-1899]: 0%

Then this compound:
Quick note, Inhibition of DA uptake for O=C(CCC1CO1)OCC1C2CCC(CC1c1ccc(Cl)c(Cl)c1)O2 (racemic) [Compound O-1834] landed at 68%
